Origin of values: patent US12655116B2

# System: AMARE
# Run Description: Post-emergence herbicidal action against AMARE
# Format: in vivo, Amaranthus retroflexus
# Test Context: 20 g/ha, visual assessment about 3 weeks after treatment, 100% = plants have died, 0% = like control plants
For each of the compounds below, state its Post-emergence action at 20 g/ha against AMARE in %.
Numbers only, in %.

Example compounds with recorded Post-emergence action at 20 g/ha against AMARE in %:
| Compound | Observed Value |
| --- | --- |
| Cc1nnc(NC(=O)c2ccc(C(F)(F)F)c(C(=O)NCC3CC3)c2C2CC2)o1 [Example 6-228] | 90 |
| CCn1nnnc1NC(=O)c1ccc(C(F)F)c(C(=O)NC)c1C [Example 2-44] | 100 |
| Cc1nnc(NC(=O)c2ccc(C(F)F)c(C(=O)NC3CC3)c2Cl)o1 [Example 6-124] | 100 |
| CCc1c(C(=O)Nc2nnnn2CC)ccc(C(F)(F)F)c1C(=O)NC1CC1 [Example 2-273] | 90 |
| CCn1nnnc1NC(=O)c1ccc(C(F)F)c(C(=O)NCC(=O)N(C)C)c1Cl [Example 2-160] | 100 |

Give Post-emergence action at 20 g/ha against AMARE in % for each of the items listed below.
1. CCn1nnnc1NC(=O)c1ccc(C(F)F)c(C(=O)NCC2CC2)c1Br [Example 2-228]
2. CCn1nnnc1NC(=O)c1ccc(OC)c(C(=O)NC)c1Cl [Example 2-352]

Result:
1. 90
2. 100

Working through the 2 compounds below one at a time, give Post-emergence action at 20 g/ha against AMARE in % for each.
1. CCc1c(C(=O)Nc2nnnn2C)ccc(C(F)(F)F)c1C(=O)NCC(F)F [Example 1-276]
2. CCn1nnnc1NC(=O)c1ccc(C(F)F)c(C(=O)NCCSC)c1Cl [Example 2-157]

Result:
1. 100
2. 90

----------
# System: PHBPU
# Run Description: Pre-emergence herbicidal action against PHBPU
# Type: in vivo, Pharbitis purpurea
# Test Context: dosage 80 g/ha
Quantity Name: Pre-emergence action against PHBPU in %
Record the result as a number with its unit.

Completed entries (count: 3):
| Molecule | Target Of Assay | Observed Value |
| --- | --- | --- |
| CCn1nnnc1NC(=O)c1ccc(C(F)F)c(C(=O)NC)c1Br | PHBPU | 90% |
| COCCNC(=O)c1c(C(F)F)ccc(C(=O)Nc2nnnn2C)c1Cl | PHBPU | 80% |
| CCn1nnnc1NC(=O)c1ccc(Br)c(C(=O)NC(C)C)c1Cl | PHBPU | 100% |

Fill in Pre-emergence action against PHBPU in % for each of the 2 compounds listed.
1. Cn1nnnc1NC(=O)c1ccc(C(F)F)c(C(=O)NC2CCC2)c1Cl
2. Cn1nnnc1NC(=O)c1ccc(C(F)(F)F)c(C(=O)NCC(F)F)c1C1CC1

Result:
1: 100%; 2: 80%

----------
# Tested on: VERPE
# Run Description: Post-emergence herbicidal action against VERPE
# Format: in vivo, Veronica persica
# Test Context: Veronica persica, 504 h, 20 g/ha
# Procedure: Seeds of monocotyledonous and dicotyledonous weed and crop plants are laid out in sandy loam soil in wood-fiber pots, covered with soil and cultivated in a greenhouse under good growth conditions. 2 to 3 weeks after sowing, the test plants are treated at the one-leaf stage. […]
Quantity Name: pest or weed control at 20 g/ha (%)
Numbers only, in %.

| Molecule | Target Of Assay | pest or weed control at 20 g/ha / % |
| --- | --- | --- |
| Cc1c(C(=O)Nc2nnnn2C)ccc(C(F)F)c1C(=O)NC1CC1 | VERPE | 90 |
| CCn1nnnc1NC(=O)c1ccc(Cl)c(C(=O)NC2CC2)c1Cl | VERPE | 80 |
| CCn1nnnc1NC(=O)c1ccc(C(F)(F)F)c(C(=O)NC2CC2)c1C1CC1 | VERPE | 80 |
| CCNC(=O)c1c(C(F)(F)F)ccc(C(=O)Nc2nnnn2C)c1OC | VERPE | 90 |
| Cc1nnc(NC(=O)c2ccc(C(F)(F)F)c(C(=O)NCC(F)(F)F)c2Cl)o1 | VERPE | 80 |
| CNC(=O)c1c(C(F)F)ccc(C(=O)Nc2nnnn2C)c1C1CC1 | VERPE | 80 |
| CCCNC(=O)c1c(C(F)(F)F)ccc(C(=O)Nc2nnnn2CC)c1C | VERPE | 90 |
| CCNC(=O)c1c(C(F)(F)F)ccc(C(=O)Nc2nnnn2CC)c1C1CC1 | VERPE | 100 |

Now let's try a different one.
Query: # query: pest or weed control at 20 g/ha of entry CCNC(=O)c1c(C(F)F)ccc(C(=O)Nc2nnnn2C)c1C1CC1
Result: 80
